Measured values drawn from patent US20240182561A1 for this set.

Target: T1, human CACNG1 expressed on cells (human, UniProt Q06432 1-222)
T1 construct: also called hCACNG1; HEK293/hCACNG1
T1 sequence (Q06432 whole entry): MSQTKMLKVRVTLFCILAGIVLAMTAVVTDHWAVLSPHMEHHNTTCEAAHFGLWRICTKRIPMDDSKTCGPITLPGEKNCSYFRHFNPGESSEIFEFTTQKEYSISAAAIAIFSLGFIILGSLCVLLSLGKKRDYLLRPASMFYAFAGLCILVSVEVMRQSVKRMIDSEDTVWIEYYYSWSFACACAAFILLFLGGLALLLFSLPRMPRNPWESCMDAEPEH
Test: imaging cell binding, HuSKM myotubes
Reported EC50 values follow for various binders
Write the number in nM without appending the unit.

Field: example entries. Status: answers known.
# binder, EC50 [nM]
rows = [
    ("H2aM31944N (antibody, mouse IgG2a, kappa, V domains shown, mIgG2a; also called CACNG1 mIgG2a antibody) VH: QVQLVESGGGVVQPGRSLRLSCEASGITFRNYGMHWVRQAPGKGLEWVAVMWYDGSNKYYADSVKGRFTISRDNSKNTVYLQMNSLRAEDTAVYYCARRGHIATAAPFDYWGQGTLVTVSS VL: DIQMTQSPSSLSASVGDRVTISCRASQSISSYLNWYQQKPGKAPKVLMYAASSLQSGVPSRFSGSGSGTDFTLTISSLQPEDFATYYCQQSYSTPPITFGQGTRLEIKR", 0.48),
    ("REGN9909 (antibody, mouse IgG2a, kappa, V domains shown, mIgG2a) VH: EVQLLESGGGLVQPGGSLRLSCAASGFTFNNYGMSWVRQGPGKGLEWVSSISGSGGTTFYADSVKGRFTISRDNSKNTLYLQMNSLRAEDTAVYYCGKGGYCSSSGCRHYGMDVWGQGTTVTVSS VL: QSVLTQPPSASGTPGQRVTISCSGSSSNIGNNYIYWYQRLPGTTPKLLIYRNNQRPSGVPDRFSGSKSGTSASLAISGLRSEDEADYYCAAWDDTLSGYVFGTGTKVTVLR", 6.51),
    ("H2aM31941N (antibody, mouse IgG1, kappa, V domains shown, Both names are treated as one molecule; also called H1M31941N; lot H1M31941N-L1) VH: QVQLVQSGAEVKKPGASVKVSCKASGYAFTTYGITWVRQAPGQGLEWMGWISAYNGNTNYAEKVQGRFTMTTDTSTNTAYMELRSLRSDDTAVYFCARKGHYGSGTYYNPFGFDFWGQGTMVTVSS VL: EIMLMQSPGTLSLSPGERATLSCRASQSVSSSYLAWYQQKPGQAPRLLIYGASSRATDIPDRFSGSGSGTDFTLTISRLEPEDFAVYFCQQYYGSPWTFGQGTKVEIKR", 0.13),
]

Attention now turns to another entry.
Exercise: Item under review: REGN9908 (antibody, mouse IgG2b, V domains shown, mIgG2b) VH: EVQLLESGGGLAQPGGSLRLSCAASGFTFSSYAMSWVRQAPGKGLEWVSSVSGSGGTTYYAASVKGRFTVSRDNSKKTLYLQMNSLRAEDTAVYYCGKGGYCSSSGCRHYGMDVWGQGTTVTVSA VL: QSVLTQPPSASGTPGQRVAISCSGSNSNIGNNYLYWYQQIPGTTPKLLIYRNNQRPSGVPDRFSASKSGTSASLAISGLRSGDEADYYCAAWDDSLSGYVFGTGTKVTVLG . Reported EC50?
Key: 14.8
